# Test system: OVCAR-3
# ASSAY PROCEDURE: Cytotoxicity against human OVCAR-3 cells assessed as inhibition of cell proliferation measured after 72 hrs by CellTiter 96 AQueous One Solution Cell Proliferation assay
# Format: functional, cell-based
# TEST CONDITIONS: OVCAR-3, 72 h
PROPERTY LABEL: pIC50
Value format note: pIC50 is -log10 of concentration (mol/L); just state the number.

For the compound `CC[C@@]12SS[C@]3(C(=O)N1C)[C@@H](O)[C@]1([C@@]45c6ccccc6N[C@@H]4N4C(=O)[C@]6(CC)SS[C@]4(C(=O)N6C)[C@H]5OC(=O)CCC(=O)O)c4ccccc4N[C@@H]1N3C2=O` , what pIC50 is on record?
6.88

What value of pIC50 has been reported for the following compound? `CC[C@@]12SS[C@]3(C(=O)N1C)[C@@H](O)[C@]1([C@@]45c6ccccc6N[C@@H]4N4C(=O)[C@]6(CC)SS[C@]4(C(=O)N6C)[C@H]5OS(=O)(=O)c4ccc(F)cc4)c4ccccc4N[C@@H]1N3C2=O`
7.10

Which pIC50 reading was recorded for the compound `CC[C@@]12SS[C@]3(C(=O)N1C)[C@@H](O)[C@]1([C@@]45c6ccccc6N[C@@H]4N4C(=O)[C@]6(CC)SS[C@]4(C(=O)N6C)[C@H]5OC(=O)C4CC4)c4ccccc4N[C@@H]1N3C2=O` ?
6.98

Need pIC50 of `CC[C@@]12SS[C@]3(C(=O)N1C)[C@@H](O)[C@]1([C@@]45c6ccccc6N[C@@H]4N4C(=O)[C@]6(CC)SS[C@]4(C(=O)N6C)[C@H]5OC(=O)C(C)(C)C)c4ccccc4N[C@@H]1N3C2=O` , thanks.
7.14

---
# get_value(readout='pIC50', item= `CCOC(=O)O[C@H]1[C@]2([C@@]34c5ccccc5N[C@@H]3N3C(=O)[C@]5(CC)SS[C@]3(C(=O)N5C)[C@H]4O)c3ccccc3N[C@@H]2N2C(=O)[C@]3(CC)SS[C@]12C(=O)N3C` )
6.86

These measurements were taken from ChEMBL document CHEMBL4706731.
